All figures here come from the supplement of paper PMC8728848.

For each of the binders below, state its glycan array binding signal (z-score).
measurementTarget: Gal(b1-3)Gal
assayName: glycan array binding signal (z-score within array); higher = stronger binding
runParameters: glycan notation: IUPAC condensed, linker removed
About 410 targets per protein were measured; listed, in parts, are those with the strongest signals and a random draw of the rest.
Give only the figure.

I am curious: what glycan array binding signal (z-score) value has been reported for Mg1lysM (Mycosphaerella graminicola) (protein) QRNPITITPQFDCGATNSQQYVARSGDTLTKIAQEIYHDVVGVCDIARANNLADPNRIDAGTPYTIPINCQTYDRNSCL ? -0.061

I am curious: what glycan array binding signal (z-score) value has been reported for Epa8 (Candida glabrata) (protein) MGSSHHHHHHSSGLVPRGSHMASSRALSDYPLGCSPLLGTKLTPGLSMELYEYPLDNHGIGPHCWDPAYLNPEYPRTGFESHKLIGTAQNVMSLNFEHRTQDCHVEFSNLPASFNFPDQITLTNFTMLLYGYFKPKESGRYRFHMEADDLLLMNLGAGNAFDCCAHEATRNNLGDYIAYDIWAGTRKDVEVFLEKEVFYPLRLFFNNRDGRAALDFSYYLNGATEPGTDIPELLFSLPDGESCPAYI ? 0.171

I am curious: what glycan array binding signal (z-score) value has been reported for SJCP1531 (Schistosoma japonicum) (protein) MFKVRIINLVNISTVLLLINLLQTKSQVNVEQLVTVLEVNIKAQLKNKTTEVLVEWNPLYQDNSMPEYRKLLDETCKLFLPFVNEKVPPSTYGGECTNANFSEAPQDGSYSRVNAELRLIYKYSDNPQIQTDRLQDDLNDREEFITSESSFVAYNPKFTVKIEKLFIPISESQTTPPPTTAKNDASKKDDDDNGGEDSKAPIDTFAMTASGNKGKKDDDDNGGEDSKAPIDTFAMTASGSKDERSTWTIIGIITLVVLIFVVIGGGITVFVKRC ? 3.29

I am curious: what glycan array binding signal (z-score) value has been reported for Epa7 (Candida glabrata), Q6DTM6_CANGB (protein) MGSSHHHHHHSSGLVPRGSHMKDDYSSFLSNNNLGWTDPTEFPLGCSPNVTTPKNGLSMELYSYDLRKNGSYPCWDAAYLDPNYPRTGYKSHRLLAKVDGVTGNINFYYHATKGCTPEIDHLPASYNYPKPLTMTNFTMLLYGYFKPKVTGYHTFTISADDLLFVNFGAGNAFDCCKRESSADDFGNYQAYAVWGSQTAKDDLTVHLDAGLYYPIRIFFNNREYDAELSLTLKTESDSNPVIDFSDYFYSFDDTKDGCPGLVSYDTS ? 2.85

I am curious: what glycan array binding signal (z-score) value has been reported for PA-IL (Pseudomonas aeruginosa) (protein) AWKGEVLANNEAGQVTSIIYNPGDVITIVAAGWASYGPTQKWGPQGDREHPDQGLICHDAFCGALVMKIGNSGTIPVNTGLFRWVAPNNVQGAITLIYNDVPGTYGNNSGSFSVNIGKDQS ? -0.271

I am curious: what glycan array binding signal (z-score) value has been reported for Tp0751, 83732 (protein) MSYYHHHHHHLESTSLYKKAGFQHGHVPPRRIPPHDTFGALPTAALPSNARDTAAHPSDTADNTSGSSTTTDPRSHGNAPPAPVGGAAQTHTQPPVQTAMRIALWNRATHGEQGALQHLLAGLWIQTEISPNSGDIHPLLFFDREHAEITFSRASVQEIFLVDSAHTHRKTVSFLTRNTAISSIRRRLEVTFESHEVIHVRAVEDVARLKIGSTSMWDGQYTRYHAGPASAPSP ? 0.017

I am curious: what glycan array binding signal (z-score) value has been reported for CFEM-CGl (Candida glabrata), Q6FRS0 (protein) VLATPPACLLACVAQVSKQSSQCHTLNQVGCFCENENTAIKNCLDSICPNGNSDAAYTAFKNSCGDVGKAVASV ? 3.15

I am curious: what glycan array binding signal (z-score) value has been reported for SpnanA (Streptococcus pneumoniae), P62575 (protein) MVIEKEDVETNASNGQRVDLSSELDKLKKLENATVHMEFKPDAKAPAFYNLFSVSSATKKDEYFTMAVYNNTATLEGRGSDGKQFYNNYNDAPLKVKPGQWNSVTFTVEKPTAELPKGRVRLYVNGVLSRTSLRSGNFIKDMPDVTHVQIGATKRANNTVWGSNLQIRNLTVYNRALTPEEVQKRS ? -0.211
